- System: LP1
- TEST: gIC50 in multiple myeloma cell line LP1 treated with EZH2 inhibitors
- Assay type: cell-based
- DETAILS: Homo sapiens, LP-1, t(4;14)+, UTX Hom 1621C>T (Q541X)
PARAMETER: pIC50
Numbers only, as −log10 of the molar value.

stdin: Look up pIC50: CC[C@H](C)n1cc(C)c2c(C(=O)NCc3c(C)cc(C)[nH]c3=O)cc(-c3ccc(N4CCNCC4)nc3)cc21 [GSK2816126A]
stdout: 5.62

Entry source: patent US20170105997A1
